# maps each entry to its luciferase signal
measured-target: Mitogen-activated protein kinase 7 (Homo sapiens) (UniProt Q13164)
Sequence (Q13164 whole entry, looked up, the tested form may be a part): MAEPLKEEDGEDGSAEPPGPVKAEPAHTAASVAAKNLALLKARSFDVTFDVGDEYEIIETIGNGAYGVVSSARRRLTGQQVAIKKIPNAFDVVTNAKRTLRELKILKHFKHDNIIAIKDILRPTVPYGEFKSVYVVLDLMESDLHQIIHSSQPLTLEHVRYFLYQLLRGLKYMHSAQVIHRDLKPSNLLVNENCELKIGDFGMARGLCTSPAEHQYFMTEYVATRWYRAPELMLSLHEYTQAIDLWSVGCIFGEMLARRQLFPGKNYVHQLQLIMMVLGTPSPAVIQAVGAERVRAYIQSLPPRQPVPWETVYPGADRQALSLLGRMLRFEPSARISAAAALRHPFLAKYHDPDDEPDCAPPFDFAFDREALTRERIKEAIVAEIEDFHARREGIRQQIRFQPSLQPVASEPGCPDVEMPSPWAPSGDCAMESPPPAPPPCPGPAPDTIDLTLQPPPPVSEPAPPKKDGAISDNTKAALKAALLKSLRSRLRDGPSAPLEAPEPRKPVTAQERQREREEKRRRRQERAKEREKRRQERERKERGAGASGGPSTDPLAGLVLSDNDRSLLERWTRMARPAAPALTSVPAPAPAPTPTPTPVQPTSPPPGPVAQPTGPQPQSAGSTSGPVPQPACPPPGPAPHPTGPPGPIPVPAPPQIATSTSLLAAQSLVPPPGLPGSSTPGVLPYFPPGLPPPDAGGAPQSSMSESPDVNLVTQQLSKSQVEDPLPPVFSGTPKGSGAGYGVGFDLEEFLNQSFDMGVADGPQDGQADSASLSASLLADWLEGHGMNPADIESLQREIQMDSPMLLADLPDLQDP
method-summary: ERK5 transactivation activators in reporter cells, primary screen, cell-based, HTS (AID 1508626);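 note: luciferase driven by Gal4-ERK5 fusion binding five Gal4 sites before minimal TATA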
experimental-setup: HeLa Gal4-ERK5 transactivation, 18 h, at 5 µM, active compounds read high
Active and inactive are the calls of the source.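 Rule for the calls: active = luciferase signal above three times the same-plate solvent-only control wells; inactive = the rest.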
quantity-kind: luciferase signal

>>> result("COC(=O)COc1cc(Cl)c(Cl)cc1Cl")
"92 AU (inactive)"
>>> result("O=C1CCCN1CC#CCN1CCCC1")
"44 AU (inactive)"
>>> result("CCCCOC(=O)c1ccccc1C(=O)OCCCC")
"76 AU (inactive)"
>>> result("C=C(C)[C@H]1CN[C@H](C(=O)O)[C@H]1CC(=O)O")
"68 AU (inactive)"
>>> result("NCC(O)c1ccc(O)cc1 (stereo not drawn)")
"80 AU (inactive)"
>>> result("O=[N+]([O-])c1ccc(O)c([N+](=O)[O-])c1")
"44 AU (inactive)"
>>> result("NC(=O)c1ccc(N)nc1")
"24 AU (inactive)"
>>> result("NC(=NCCC[C@H](N)C(=O)O)N[N+](=O)[O-]")
"44 AU (inactive)"
>>> result("CC[C@H]1CN2CC[C@H]1C[C@@H]2[C@@H](O)c1ccnc2ccc(OC)cc12")
"16 AU (inactive)"
>>> result("COc1ccc2c3c([nH]c2c1)C(C)=NCC3")
"68 AU (inactive)"
>>> result("CC(C)CC(N(C)C)C1(c2ccc(Cl)cc2)CCC1 (stereo not drawn)")
"60 AU (inactive)"
>>> result("Nc1ccncc1")
"32 AU (inactive)"
>>> result("CN1CCN(C(=O)O[C@H]2c3nccnc3C(=O)N2c2ccc(Cl)cn2)CC1")
"40 AU (inactive)"
